These data points were gathered from patent US9464071B2.

MEASURED_QUANTITY: melting point (°C)

COMPOUND	OUTPUT_UNIT	melting point
COc1cc(C)cc(N(CC2CC2)c2ccc3ncc(-c4cnn(C)c4)nc3c2)c1 [Compound 228]	°C	132
COc1cc(OC)cc(N(CCN2CCN(C(C)=O)CC2)c2ccc3ncc(-c4cnn(C)c4)nc3c2)c1 [Compound 143]	°C	184.72
COc1cc(OC)cc(N(C[C@@H](O)C(F)(F)F)c2ccc3ncc(-c4cnn(CCCN)c4)nc3c2)c1 [Compound 660]	°C	151

A: COc1cc(OC)cc(N(Cc2ccc(Cl)s2)c2ccc3ncc(-c4cn[nH]c4)nc3c2)c1 [Compound 323]
B: CNC(=O)c1cc(OC)cc(N(CC2CC2)c2ccc3ncc(-c4cn[nH]c4)nc3c2)c1 [Compound 311]
Of A and B , whose reported melting point is the larger number? Answer with the label corresponding to your selection. B
(B: 262.42 °C, A: 166.37 °C)

a: CCS(=O)(=O)NCCN(c1cc(OC)cc(OC)c1)c1ccc2ncc(-c3cnn(C)c3)nc2c1 [Compound 335]
b: COc1cc(OC)cc(N(C[C@@H](O)CN2CC[C@H](C#N)C2)c2ccc3ncc(-c4cnn(C)c4)nc3c2)c1 [Compound 526]
Of a and b , which one carries the higher reported melting point? Please indicate the selected item by its label. b
(b: 234.8 °C, a: 122.79 °C)

----------
MEASURED_QUANTITY: melting point (°C)

Consider the reported melting point for these compounds:
COMPOUND	OUTPUT_UNIT	melting point
COc1cc(OC)cc(N(CC(O)C(F)(F)F)c2ccc3ncc(-c4cnn(C)c4)nc3c2)c1 (single isomer, unassigned) [Compound 149]	°C	146.61
COc1cc(OC)cc(N(Cc2ccc(Cl)s2)c2ccc3ncc(-c4cnn(CCO)c4)nc3c2)c1 [Compound 340]	°C	184.2

1: COc1cc(OC(C)C)cc(N(CC2CC2)c2ccc3ncc(-c4cnn(C)c4)nc3c2)c1 [Compound 269]
2: COc1cc(OCCO)cc(N(CC2CC2)c2ccc3ncc(-c4cn[nH]c4)nc3c2)c1
Out of 1 and 2 , name the one with the higher melting point. // caller expects the label of the chosen entry 1

----------
MEASURED_QUANTITY: melting point (°C)

MOLECULE	melting point / °C
COc1ccnc(C#CCN(c2ccc3ncc(-c4cnn(C)c4)nc3c2)c2c(Cl)c(OC)cc(OC)c2Cl)n1	130
CNC(=O)Cn1cc(-c2cnc3ccc(N(CC4CC4)c4cc(OC)cc(OC)c4)cc3n2)cn1	170.82
COc1cc(OC)cc(N(CC2CC2)c2ccc3ncc(-c4cnn(CCNS(=O)(=O)N(C)C)c4)nc3c2)c1	160.27
COc1cc(OC)cc(N(CC2CN(Cc3ccccc3)CCN2Cc2ccccc2)c2ccc3ncc(-c4cnn(C)c4)nc3c2)c1 (centres unmarked)	148
CCOc1cc(F)cc(N(CCN)c2ccc3ncc(-c4cnn(C)c4)nc3c2)c1	70
COCC(O)CN(c1cc(OC)cc(OC)c1)c1ccc2ncc(-c3cnn(C)c3)nc2c1 (centres unmarked)	132.82
COc1cc(OC)cc(N(CCCN2CCC(F)C2)c2ccc3ncc(-c4cnn(C)c4)nc3c2)c1 (centres unmarked)	125
COc1cc(OC)cc(N(CC(=O)Nc2cc(C)ccn2)c2ccc3ncc(-c4cnn(C)c4)nc3c2)c1	212

A: CONCCN(c1cc(OC)cc(OC)c1)c1ccc2ncc(-c3cnn(C)c3)nc2c1
B: COc1cc(OC)cc(N(CCN2CCN(CCO)CC2)c2ccc3ncc(-c4cnn(C)c4)nc3c2)c1
C: COc1cc(OC)cc(N(CCNC(C)C)c2ccc3ncc(-c4cnn(C5CCN(C(=O)OC(C)(C)C)CC5)c4)nc3c2)c1
Place the items in sequence of falling melting point. List the labels in the requested order. A, B, C
(A: 177 °C, B: 110.16 °C, C: 66 °C)

----------
MEASURED_QUANTITY: melting point (°C)

STRUCTURE_STRING	MEASURED_QUANTITY	OUTPUT_UNIT	NUMERIC_VALUE
COc1cc(OC)cc(N(C/C(C)=N/O)c2ccc3ncc(-c4cnn(C)c4)nc3c2)c1	melting point	°C	144

1: COc1cc(OC)cc(N(CCF)c2ccc3ncc(-c4cnn(C)c4)nc3c2)c1
2: COc1cc(OC)cc(N(CCO)c2ccc3ncc(-c4cnn(C)c4CCCO)nc3c2)c1
Could you point out whether the larger melting point belongs to 1 or to 2 ? Answer by stating the label of the chosen item. 1

----------
Where a name gives a salt, the structure may show the parent alone.
MEASURED_QUANTITY: melting point (°C)

Below, each entry is followed by its recorded melting point result.
MOLECULE	OUTPUT_UNIT	NUMERIC_VALUE
COc1cc(OC)cc(N(CCN2CCOCC2)c2ccc3ncc(-c4cnn(C)c4)nc3c2)c1 [Compound 299]	°C	201
COc1cc(F)cc(N(CCN)c2ccc3ncc(-c4cnn(C)c4)nc3c2)c1 [Compound 488]	°C	96.65
CNCCN(c1cc(OC)cc(OC)c1)c1ccc2ncc(-c3cnn(CCO)c3)nc2c1	°C	131.93
COc1cc(OC)cc(N(CC#Cc2ccnc(N)n2)c2ccc3ncc(-c4cnn(C)c4)nc3c2)c1	°C	148
COc1cc(OC)cc(N(CCCn2cccn2)c2ccc3ncc(-c4cnn(C)c4)nc3c2)c1 [Compound 448]	°C	80
COc1cc(OC)cc(N(CCN)c2ccc3ncc(-c4cn[nH]c4)nc3c2)c1	°C	184
CNCCN(c1cc(OC)cc(OC)c1)c1ccc2ncc(-c3cn[nH]c3)nc2c1	°C	193.59

a: COc1cc(OC)cc(N(CCN2C[C@H](C)C[C@@H](C)C2)c2ccc3ncc(-c4cnn(C)c4)nc3c2)c1 (as salt: HCl) [Compound 40]
b: COc1cc(OC)cc(N(CC#Cc2nccs2)c2ccc3ncc(-c4cnn(C)c4)nc3c2)c1
Compare a and b by numeric melting point and name the larger one. API: response body contains the label of the selected item. b

----------
Counter-ions that a name gives are not always drawn.
MEASURED_QUANTITY: melting point (°C)

MOLECULE	OUTPUT_UNIT	melting point
COc1cc(OC)cc(N(CCn2cccc2)c2ccc3ncc(-c4cnn(C)c4)nc3c2)c1 (as salt: HCl)	°C	130
COc1cc(OC)cc(N(CC2CCOCC2)c2ccc3ncc(-c4cnn(C)c4)nc3c2)c1	°C	154.94
CNC(=O)Cn1cc(-c2cnc3ccc(N(CCNC(C)C)c4cc(OC)cc(OC)c4)cc3n2)cn1 (as salt: HCl)	°C	184
COc1cc(OC)cc(N(CCO)c2ccc3ncc(-c4cnn(C)c4CN(C)C)nc3c2)c1	°C	176

----------
MEASURED_QUANTITY: melting point (°C)

MOLECULE	NUMERIC_VALUE
COc1ccc(OC)c(N(CCO)c2ccc3ncc(-c4cnn(C)c4)nc3c2)c1	191.73
COc1cc(OC)cc(N(CCN2CCC(N(C)C)C2)c2ccc3ncc(-c4cnn(C)c4)nc3c2)c1 (stereo not shown) [Compound 456]	143.58
COc1cc(OC)cc(N(CCC#Cc2ccccc2)c2ccc3ncc(-c4cnn(C)c4)nc3c2)c1 [Compound 919]	130
COc1cc(OC)cc(N(Cc2nccn2C)c2ccc3ncc(-c4cnn(C)c4)nc3c2)c1 [Compound 101]	186
COc1cc(OC)cc(N(Cc2nc(OC)cc(OC)n2)c2ccc3ncc(-c4cnn(C)c4)nc3c2)c1	127
COc1cc(OC)cc(N(Cc2cc(C)no2)c2ccc3ncc(-c4cnn(CCO)c4)nc3c2)c1 [Compound 23]	134
COc1cc(OC)cc(N(CCNS(C)(=O)=O)c2ccc3ncc(-c4cnn(C)c4)nc3c2)c1 [Compound 262]	130.64
CNCCN(c1cc(OC)cc(OCCO)c1)c1ccc2ncc(-c3cnn(C)c3)nc2c1	142
COc1cc(OC)cc(N(Cc2cc(C)on2)c2ccc3ncc(-c4cnn(C)c4)nc3c2)c1	171

----------
MEASURED_QUANTITY: melting point (°C)

STRUCTURE_STRING	NUMERIC_VALUE
COc1cc(OC)cc(N(Cc2ccncc2)c2ccc3ncc(-c4cnn(C)c4)nc3c2)c1	139
COc1cc(OC)cc(N(CCCNS(=O)(=O)N(C)C)c2ccc3ncc(-c4cnn(C)c4)nc3c2)c1	158.73
COc1cc(OC)cc(N(CCCN2CCC(F)(F)C2)c2ccc3ncc(-c4cnn(C)c4)nc3c2)c1	158.84
COc1cc(OC)cc(N(CCO)c2ccc3ncc(-c4cnn(CCCN)c4)nc3c2)c1	133.66
COc1cc(OC)cc(N(c2ccc3ncc(-c4cnn(C)c4)nc3c2)C(C)(C)C#Cc2nccc(OC)n2)c1	182

----------
Where a name gives a salt, the structure may show the parent alone.
MEASURED_QUANTITY: melting point (°C)

COMPOUND	melting point / °C
COc1cc(OCCO)cc(N(CC2CC2)c2ccc3ncc(-c4cnn(CCO)c4)nc3c2)c1 (as salt: HCl) [Compound 131]	183.2
COc1cc(O)cc(N(CCN)c2ccc3ncc(-c4cnn(C)c4)nc3c2)c1	186
COc1cc(OC)cc(N(CCCNCC(N)=O)c2ccc3ncc(-c4cnn(C)c4)nc3c2)c1 [Compound 641]	155
COc1cc(OC)cc(N(CC#Cc2cccnc2Br)c2ccc3ncc(-c4cnn(C)c4)nc3c2)c1	176
COc1cc(OC)cc(N(Cc2nc(C)c[nH]2)c2ccc3ncc(-c4cnn(C)c4)nc3c2)c1 (as salt: HCl)	188

P: CN(C)c1cccc(N(CC2CC2)c2ccc3ncc(-c4cnn(C)c4)nc3c2)c1 [Compound 883]
Q: COCCn1cc(-c2cnc3ccc(N(CC4CC4)c4cc(OC)cc(OC)c4)cc3n2)cn1
Between P and Q , which one shows the larger melting point value? Your answer should be the label attached to the chosen record. P
